Test system: Plasmodium berghei
measurement-protocol: Screen against P. berghei liver stage (PbLuc), transformed with Luciferase, at 10uM
Type: functional, HepG2
condition: tested at 10 uM
Screen size: about 69,000 compounds; about 8,600 (12%) showed an effect of 50% or more. Shown is part of a subset that was picked to be rich in strong results.
Please provide measured INHIBITION for the entries that follow.
Numbers only, in %.

Answered cases to consult:
CN1CCN(Cc2cnc3n2CCN(C(=O)c2ccncc2)C3)CC1; 42.7
Cc1cccc(C(=O)N2CCn3c(CN4CCN(C)CC4)cnc3C2)n1; 68.4
CN1CCN(Cc2cnc3n2CCN(C(=O)c2ccnnc2)C3)CC1; 32.2

Give me INHIBITION for each of these compounds, listed below.
1. CN1CCN(Cc2cnc3n2CCN(C(=O)c2cnccn2)C3)CC1
2. Cc1cc2c(N3CCC(N(C)Cc4cnn(C)c4)CC3)ncnc2s1

Result block:
[20.6, 75.7]

List the reported INHIBITION of each compound below.
1. CN1CCN(Cc2cnc3n2CCN(C(=O)c2ccoc2)C3)CC1
2. CC1CCc2nc(NS(=O)(=O)c3cnn(C)c3)sc2C1 (stereo unspecified)
3. CN1CCN(Cc2cnc3n2CCN(C(=O)c2ccccn2)C3)CC1
4. CC(C)NC(=O)N1CCCC2(CCN(c3ccsc3)C2=O)C1 (stereo unspecified)
5. CSCC[C@H](N)C(=O)NCc1cc2n(n1)CCCN(C(=O)C1CCC1)C2
6. Cc1nc(CN2CCCC(N(C)Cc3cnn(C)c3)C2)no1 (stereo unspecified)

Result block:
[59, 33.4, 40.4, -4.82, 28.5, 5.48]
